Biological target: Androgen receptor (Homo sapiens) (UniProt P10275)
Sequence (P10275 whole entry, looked up): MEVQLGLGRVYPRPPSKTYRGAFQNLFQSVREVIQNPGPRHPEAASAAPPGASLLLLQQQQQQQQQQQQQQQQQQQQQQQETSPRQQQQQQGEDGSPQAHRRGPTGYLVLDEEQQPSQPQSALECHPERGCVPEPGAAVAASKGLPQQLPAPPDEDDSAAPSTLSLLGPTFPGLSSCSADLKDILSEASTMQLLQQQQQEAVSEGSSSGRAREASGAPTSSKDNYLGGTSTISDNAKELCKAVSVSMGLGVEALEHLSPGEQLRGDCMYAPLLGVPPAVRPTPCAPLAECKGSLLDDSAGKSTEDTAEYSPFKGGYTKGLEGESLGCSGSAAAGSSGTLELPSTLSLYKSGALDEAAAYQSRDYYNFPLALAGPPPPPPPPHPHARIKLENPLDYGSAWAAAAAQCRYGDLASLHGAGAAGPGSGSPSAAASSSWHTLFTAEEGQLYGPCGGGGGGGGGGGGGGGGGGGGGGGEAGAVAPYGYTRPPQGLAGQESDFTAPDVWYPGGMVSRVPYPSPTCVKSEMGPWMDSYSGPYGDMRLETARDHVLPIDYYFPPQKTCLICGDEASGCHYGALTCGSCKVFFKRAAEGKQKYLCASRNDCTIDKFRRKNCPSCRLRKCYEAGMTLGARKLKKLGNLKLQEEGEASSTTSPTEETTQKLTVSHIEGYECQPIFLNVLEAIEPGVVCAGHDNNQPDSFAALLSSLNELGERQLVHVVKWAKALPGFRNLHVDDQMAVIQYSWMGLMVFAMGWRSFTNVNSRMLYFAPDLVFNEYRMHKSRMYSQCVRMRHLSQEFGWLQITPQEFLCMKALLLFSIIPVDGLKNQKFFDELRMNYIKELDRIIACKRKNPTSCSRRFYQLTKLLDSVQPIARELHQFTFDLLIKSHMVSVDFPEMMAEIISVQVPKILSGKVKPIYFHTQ
Assay: qHTS assay to identify small molecule antagonists of the androgen receptor (AR) signaling pathway using the MDA cell line (AID 743042; also: nearly all actives have a fitted effect of over 55% in size)
Details: MDA-kb2 AR-luc, MMTV luciferase, R1881 antagonist, 16 h; series mostly up to 70.3 µM
Inconclusive results are not listed. Calls of active or inactive are those of the source. Calls follow the shape of the dose curve; as a rule, active = well fitted inhibition curve with a large enough effect in the repeat runs; inconclusive = weak or mixed curves, or effect the other way; inactive = no such curve, though single readings can be large or run the other way.
Possible outcomes: active, inactive

CC(C)=CCOc1c2occc2cc2ccc(=O)oc12    inactive
Nc1ccc([N+](=O)[O-])cc1[N+](=O)[O-]    inactive
CO[C@@H]1[C@H](OC(=O)NC(=O)CCl)CC[C@]2(CO2)[C@H]1[C@@]1(C)O[C@@H]1CC=C(C)C    inactive
Cc1ccc2ccccc2c1    inactive
CCOP(=S)(OCC)Oc1nc(Cl)c(Cl)cc1Cl    inactive
II    inactive
NCCCNCCCN    inactive
COP(=S)(OC)Oc1cc(Cl)c(I)cc1Cl    inactive
N#CCC#N    inactive
CO/N=C(/C(=O)OC)c1ccccc1COc1ccccc1C    active
C=CC(=O)NCNC(=O)C=C    inactive
OC(c1ccc(Cl)cc1)(c1ccc(Cl)cc1)c1cccnc1    active
Cc1ccc(-c2c(Cl)nc(C#N)n2S(=O)(=O)N(C)C)cc1    active
C[N+](C)(C)CCCl    inactive
Cl/C=C\C[N+]12CN3CN(CN(C3)C1)C2    inactive
CCOP(=S)(OCC)Oc1cc(Cl)c(Br)cc1Cl    inactive
O=C1C(Cl)C(CCl)CN1c1cccc(C(F)(F)F)c1 (stereo not given)    inactive
CCOC(=O)COc1cc(-c2nn(C)c(OC(F)F)c2Cl)c(F)cc1Cl    inactive
O=C(Nc1ccccc1)Nc1ccnc(Cl)c1    active
O=NN1CCCCCC1    inactive
c1cc2ccc3cccc4ccc(c1)c2c34    inactive
COP(=S)(OC)Oc1ccc([N+](=O)[O-])cc1Cl    inactive
C/C(=C\c1ccccc1)[N+](=O)[O-]    active
CS/C(C)=N/OC(=O)N(C)SN(C)C(=O)O/N=C(\C)SC    inactive
BrCC(Br)C1CCC(Br)C(Br)C1 (stereo not given)    inactive
O=[N+]([O-])C(Br)(CO)CO    inactive
NS(=O)(=O)C(F)(F)C(F)(F)C(F)(F)C(F)(F)C(F)(F)C(F)(F)C(F)(F)C(F)(F)F    active
Brc1ccccc1    inactive
CC1CC(CC2CCC(N)C(C)C2)CCC1N (stereo not given)    inactive
CC(=O)NC1CCSC1=O (stereo not given)    inactive
